- Tested on: 855422-203-R-J1-PDC complex spheroid growth
- procedure-summary: Anticancer human tumor 855422-203-R-J1-PDC patient-derived bladder carcinoma cell line growth inhibition [AhR]
- condition-parameters: second compound 3.16 µM; first compound 0.0316 µM; stronger effect = lower value
- Excerpt: Multicellular complex tumor spheroid response to aryl hydrocarbon receptor antagonists in combination with a variety of drugs and investigational agents in selected tumor cell lines […] Compounds. […] If the clinical Cmax for an agent had not been determined, the highest concentration tested was 10 microM (Table 1). […]
Parameter: viability, T/C. Scope: all listed entries.
Answer with a number only, understood to be in %.

# molecule, outcome-measure, unit-symbol, meas-value
records = [
    ("O=C(C=Cc1cccc(S(=O)(=O)Nc2ccccc2)c1)NO + Cc1cncc(-c2nc(NCCc3c[nH]c4ccccc34)c3ncn(C(C)C)c3n2)c1", "viability, T/C", "%", 73.5),
]

For this molecule ( COc1cc(C2c3cc4c(cc3C(OC3OC5COC(C)OC5C(O)C3O)C3COC(=O)C23)OCO4)cc(OC)c1O (stereo not given) + Cc1ccccc1N=Nc1ccc(NC(=O)c2ccnn2C)c(C)c1 ), measured viability, T/C is 82.9

For this molecule ( COc1ccc([C@@H](O)c2cc(-c3ncnc4cc(N5CCOCC5)ccc34)c(F)cc2Cl)nn1 + Cc1cncc(-c2nc(NCCc3c[nH]c4ccccc34)c3ncn(C(C)C)c3n2)c1 ), measured viability, T/C is 79.5

For this molecule ( Cn1ncnc1C1c2n[nH]c(=O)c3cc(F)cc(c23)NC1c1ccc(F)cc1 (stereo not given) + Cc1cncc(-c2nc(NCCc3c[nH]c4ccccc34)c3ncn(C(C)C)c3n2)c1 ), measured viability, T/C is 76.9

For this molecule ( CC1(C)CCC(CN2CCN(c3ccc(C(=O)NS(=O)(=O)c4ccc(NCC5CCOCC5)c([N+](=O)[O-])c4)c(Oc4cnc5[nH]ccc5c4)c3)CC2)=C(c2ccc(Cl)cc2)C1 + CC(CO)NC(=O)c1cc(-c2ccc(Cl)cc2)nn(-c2cnn(C)c2)c1=O ), measured viability, T/C is 104

###

Parameter: viability, T/C. Scope: all listed entries.
- System: 855422-203-R-J1-PDC complex spheroid growth
- procedure-summary: Anticancer human tumor 855422-203-R-J1-PDC cell line growth inhibition [AhR];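 further: spheroids exposed to agents for seven days before readout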;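 on viability, T/C: percent of DMSO vehicle control luminescence viability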
- condition-parameters: second compound 3.16 µM; first compound 0.00316 µM; stronger effect = lower value
Answer with a number only, understood to be in %.

# molecule, system, viability, T/C (%)
measured = [
    ("CC1COCCN1c1cc(-c2ccnn2C)c2ccnc(-c3ccn[nH]3)c2n1 (configuration not stated) + CC(CO)NC(=O)c1cc(-c2ccc(Cl)cc2)nn(-c2cnn(C)c2)c1=O", "855422-203-R-J1-PDC complex spheroid growth", 85.7),
    ("CC[C@@]1(O)C(=O)OCc2c1cc1n(c2=O)Cc2cc3c(CN(C)C)c(O)ccc3nc2-1 + Cc1ccccc1N=Nc1ccc(NC(=O)c2ccnn2C)c(C)c1", "855422-203-R-J1-PDC complex spheroid growth", 89.3),
    ("Cn1ncnc1C1c2n[nH]c(=O)c3cc(F)cc(c23)NC1c1ccc(F)cc1 (configuration not stated) + Cc1ccccc1N=Nc1ccc(NC(=O)c2ccnn2C)c(C)c1", "855422-203-R-J1-PDC complex spheroid growth", 93.9),
    ("Nc1ncn(C2CC(O)C(CO)O2)c(=O)n1 (configuration not stated) + Cc1ccccc1N=Nc1ccc(NC(=O)c2ccnn2C)c(C)c1", "855422-203-R-J1-PDC complex spheroid growth", 97.4),
]

For this molecule ( CC[C@@]1(O)C(=O)OCc2c1cc1n(c2=O)Cc2cc3c(CN(C)C)c(O)ccc3nc2-1 + Cc1cncc(-c2nc(NCCc3c[nH]c4ccccc34)c3ncn(C(C)C)c3n2)c1 ), measured viability, T/C is 74.3

For this molecule ( Cn1ncnc1C1c2n[nH]c(=O)c3cc(F)cc(c23)NC1c1ccc(F)cc1 (configuration not stated) + CC(CO)NC(=O)c1cc(-c2ccc(Cl)cc2)nn(-c2cnn(C)c2)c1=O ), measured viability, T/C is 102

For this molecule ( CC[C@@]1(O)C(=O)OCc2c1cc1n(c2=O)Cc2cc3c(CN(C)C)c(O)ccc3nc2-1 + CC(CO)NC(=O)c1cc(-c2ccc(Cl)cc2)nn(-c2cnn(C)c2)c1=O ), measured viability, T/C is 93

For this molecule ( Cn1ncnc1C1c2n[nH]c(=O)c3cc(F)cc(c23)NC1c1ccc(F)cc1 (configuration not stated) + Cc1cncc(-c2nc(NCCc3c[nH]c4ccccc34)c3ncn(C(C)C)c3n2)c1 ), measured viability, T/C is 71.4

For this molecule ( Nc1ncn(C2CC(O)C(CO)O2)c(=O)n1 (configuration not stated) + Cc1cncc(-c2nc(NCCc3c[nH]c4ccccc34)c3ncn(C(C)C)c3n2)c1 ), measured viability, T/C is 79.9

###

- Tested on: 855422-203-R-J1-PDC complex spheroid growth
- procedure-summary: Anticancer human tumor 855422-203-R-J1-PDC cell line growth inhibition [AhR];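 further: spheroids exposed to agents for seven days before readout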;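 on viability, T/C: percent of DMSO vehicle control luminescence viability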
- condition-parameters: second compound 10 µM; first compound 1 µM; stronger effect = lower value
Criterion: viability, T/C strictly under 8%. Met: True. Not met: False.

Solved cases below.
# compound, label-value
rows = [
    ("COc1cc(C2c3cc4c(cc3C(OC3OC5COC(C)OC5C(O)C3O)C3COC(=O)C23)OCO4)cc(OC)c1O (stereo unspecified) + Cc1ccccc1N=Nc1ccc(NC(=O)c2ccnn2C)c(C)c1", "False"),
    ("Nc1ccccc1NC(=O)c1ccc(CNC(=O)OCc2cccnc2)cc1 + CC(CO)NC(=O)c1cc(-c2ccc(Cl)cc2)nn(-c2cnn(C)c2)c1=O", "False"),
    ("CC(C)c1c(-c2ccccc2)nc2c(C#N)c[nH]n2c1=O + Cc1cncc(-c2nc(NCCc3c[nH]c4ccccc34)c3ncn(C(C)C)c3n2)c1", "True"),
    ("COc1ccc([C@@H](O)c2cc(-c3ncnc4cc(N5CCOCC5)ccc34)c(F)cc2Cl)nn1 + Cc1ccccc1N=Nc1ccc(NC(=O)c2ccnn2C)c(C)c1", "False"),
]

Given Nc1ccn(C2OC(CO)C(O)C2(F)F)c(=O)n1 (stereo unspecified) + CC(CO)NC(=O)c1cc(-c2ccc(Cl)cc2)nn(-c2cnn(C)c2)c1=O , is recorded viability, T/C strictly lower than 8%? False

###

- Tested on: 855422-203-R-J1-PDC complex spheroid growth
- procedure-summary: Anticancer human tumor 855422-203-R-J1-PDC cell line growth inhibition [AhR]; active = viability on the fitted dose curve at most 10% of control; inactive = the rest;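 further: spheroids exposed to agents for seven days before readout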
- condition-parameters: second compound 0.1 µM; first compound 1 µM
API: response.call in active, inactive

Solved cases below.
# compound, label-value
measured = [
    ("COc1cc(C2c3cc4c(cc3C(OC3OC5COC(C)OC5C(O)C3O)C3COC(=O)C23)OCO4)cc(OC)c1O (stereo not drawn) + Cc1ccccc1N=Nc1ccc(NC(=O)c2ccnn2C)c(C)c1", "inactive"),
    ("CC1COCCN1c1cc(C2(S(C)(=N)=O)CC2)nc(-c2ccnc3[nH]ccc23)n1 (stereo not drawn) + Cc1ccccc1N=Nc1ccc(NC(=O)c2ccnn2C)c(C)c1", "inactive"),
]

# input for lookup
Hi team, can someone confirm the assay call for COc1cccc2c1C(=O)c1c(O)c3c(c(O)c1C2=O)CC(O)(C(=O)CO)CC3OC1CC(N)C(O)C(C)O1 (stereo not drawn) + CC(CO)NC(=O)c1cc(-c2ccc(Cl)cc2)nn(-c2cnn(C)c2)c1=O ? active

###

- Test system: 855422-203-R-J1-PDC complex spheroid growth
- procedure-summary: Anticancer human tumor 855422-203-R-J1-PDC cell line growth inhibition [AhR];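 further: spheroids exposed to agents for seven days before readout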
- condition-parameters: curve of first compound; second compound 10 µM
outcome-measure: IC50

Record excerpt, results attached:
# compound, outcome-measure, meas-value
measured = [
    ("CC1COCCN1c1cc(-c2ccnn2C)c2ccnc(-c3ccn[nH]3)c2n1 (configuration not stated) + Cc1cncc(-c2nc(NCCc3c[nH]c4ccccc34)c3ncn(C(C)C)c3n2)c1", "IC50", "< 3.16 nM"),
    ("CC[C@@]1(O)C(=O)OCc2c1cc1n(c2=O)Cc2cc3c(CN(C)C)c(O)ccc3nc2-1 + CC(CO)NC(=O)c1cc(-c2ccc(Cl)cc2)nn(-c2cnn(C)c2)c1=O", "IC50", "45.1 nM"),
    ("CCN(c1cc(-c2ccc(CN3CCOCC3)cc2)cc(C(=O)NCc2c(C)cc(C)[nH]c2=O)c1C)C1CCOCC1 + CC(CO)NC(=O)c1cc(-c2ccc(Cl)cc2)nn(-c2cnn(C)c2)c1=O", "IC50", "> 3000 nM"),
    ("COc1cc(Nc2ncc3c(n2)-c2ccc(Cl)cc2C(c2c(F)cccc2OC)=NC3)ccc1C(=O)O + CC(CO)NC(=O)c1cc(-c2ccc(Cl)cc2)nn(-c2cnn(C)c2)c1=O", "IC50", "> 10000 nM"),
    ("CCN(c1cc(-c2ccc(CN3CCOCC3)cc2)cc(C(=O)NCc2c(C)cc(C)[nH]c2=O)c1C)C1CCOCC1 + Cc1cncc(-c2nc(NCCc3c[nH]c4ccccc34)c3ncn(C(C)C)c3n2)c1", "IC50", "< 9.49 nM"),
    ("CC1COCCN1c1cc(-c2ccnn2C)c2ccnc(-c3ccn[nH]3)c2n1 (configuration not stated) + Cc1ccccc1N=Nc1ccc(NC(=O)c2ccnn2C)c(C)c1", "IC50", "298 nM"),
    ("CC1(C)CCC(CN2CCN(c3ccc(C(=O)NS(=O)(=O)c4ccc(NCC5CCOCC5)c([N+](=O)[O-])c4)c(Oc4cnc5[nH]ccc5c4)c3)CC2)=C(c2ccc(Cl)cc2)C1 + CC(CO)NC(=O)c1cc(-c2ccc(Cl)cc2)nn(-c2cnn(C)c2)c1=O", "IC50", "5940 nM"),
    ("Nc1ncn(C2CC(O)C(CO)O2)c(=O)n1 (configuration not stated) + Cc1ccccc1N=Nc1ccc(NC(=O)c2ccnn2C)c(C)c1", "IC50", "> 1000 nM"),
]

For this compound ( COc1ccc([C@@H](O)c2cc(-c3ncnc4cc(N5CCOCC5)ccc34)c(F)cc2Cl)nn1 + Cc1cncc(-c2nc(NCCc3c[nH]c4ccccc34)c3ncn(C(C)C)c3n2)c1 ), measured IC50 is < 31.6 nM

For this compound ( CC(C)c1c(-c2ccccc2)nc2c(C#N)c[nH]n2c1=O + Cc1ccccc1N=Nc1ccc(NC(=O)c2ccnn2C)c(C)c1 ), measured IC50 is > 10000 nM

For this compound ( COc1cc(Nc2ncc3c(n2)-c2ccc(Cl)cc2C(c2c(F)cccc2OC)=NC3)ccc1C(=O)O + Cc1cncc(-c2nc(NCCc3c[nH]c4ccccc34)c3ncn(C(C)C)c3n2)c1 ), measured IC50 is < 31.6 nM

For this compound ( O=C(C=Cc1cccc(S(=O)(=O)Nc2ccccc2)c1)NO + CC(CO)NC(=O)c1cc(-c2ccc(Cl)cc2)nn(-c2cnn(C)c2)c1=O ), measured IC50 is 1730 nM
